Recorded values, source ChEMBL document CHEMBL1126595.

assay: Partition coefficient in the octanol/water phase at pH 7.4; format: physicochemical
parameter: logD

molecule | parameter | limit sign | observed measurement
CC(C)C[C@H](O)[C@H](O)[C@H](CC1CCCCC1)NC(=O)[C@H](Cc1cscn1)NC(=O)[C@@H](CC(=O)N(C)CCn1cccn1)Cc1ccccc1 | logD | > | 4.2
CC(C)C[C@H](O)[C@H](O)[C@H](CC1CCCCC1)NC(=O)[C@H](Cc1cscn1)NC(=O)[C@@H](CC(=O)N(C)CCn1ccnc1)Cc1ccccc1 | logD | = | 4.01
CC(C)C[C@H](O)[C@H](O)[C@H](CC1CCCCC1)NC(=O)[C@H](Cc1cscn1)NC(=O)[C@@H](CC(=O)N(C)CCN(C)C)Cc1ccccc1 | logD | = | 3.11
CC(C)C[C@H](O)[C@H](O)[C@H](CC1CCCCC1)NC(=O)[C@H](Cc1cscn1)NC(=O)[C@@H](CC(=O)N(C)CCc1ccccn1)Cc1ccccc1 | logD | = | 4.22
CC(C)C[C@H](O)[C@H](O)[C@H](CC1CCCCC1)NC(=O)[C@H](Cc1cscn1)NC(=O)[C@@H](CC(=O)N(C)CCN1CCOCC1)Cc1ccccc1 | logD | = | 4.15
